tested on: VchCAST RNA-guided transposition machinery (E. coli BL21(DE3) host, lacZ target); assay: relative integration efficiency (T-RL orientation) vs wild-type transposon end (log2 (normalized fold change)); transposon end mutated: right end (5 bp flank + 75 bp right end); higher = more efficient transposition
Item-by-item account of relative integration efficiency (log2)
Observed property: relative integration efficiency (log2)

Biopolymer sequence	Data value
ACATTTGTTGATACAACCATAAAATGATAATTACACCCATAAATTGATAATTATCACACCCATAAATTGATATTGCCTCTGATCATAGTCAGATGAATTTTTATGCAAAGACCAACAGCACCGACAC	0.552
ACATTTGTTGATACAACCATAAGTTGATATTTTCAACCATAAAATGATAATTATCACAACCATAAAGTGATATTTACTCTGATCATAGTCAGACCAACATTGCTACGACCCGTATTCGCACCGACAC	0.0134
ACATTTGTTGATATAATTATCATTTTATGGTTGTAATTATCATTTTATGGTTGTCATAATTATCATTTTATGGTTGCTCTGATCATAGTCAGACCAACATTGCTACGACCCGTATTCGCACCGACAC	-6.26
ACATTTGTTGATACACCCATAAATTGATATTGCCAACCATAAAGTGATATTTATCACAACCATAAGTTGATATTTTCTCTGATCATAGTCAGACCAACATTGCTACGACCCGTATTCGCACCGACAC	-0.617
ACATTTGTCAACCATAAAATGATAATTACACCCATAAATTGATAATTATCACACCCATAAATTGATATTGCCTCTGATCATAGTCAGACCAACATTGCTACGACCCGTATTCGCACCGACACTGACT	-6.76
ACATTTGTTGATACAACCATAAAAGGATCATTACACCCATCAATTGATAATTATCACACCCCATTTAACTATAACGCTCTGATCATAGTCAGACCAACATTGCTACGACCCGTATTCGCACCGACAC	-3.25
ACATTTGTTGATACAACCATAAAATGATAATTAATAATTATTTATAATCAGCAACTTAACACCCATAAATTGATAATTATCACACCCATAAATTGATATTGCCTCTGATCATAGTCAGACCAACATT	-3.62
ACATTTGTTCATACAACCATAAAACGATAATTACACCCATAAATGGATCATTATCACACCCAATTTAACTATAACGCTCTGATCATAGTCAGACCAACATTGCTACGACCCGTATTCGCACCGACAC	-2.16
ACATTTGTTGATACAACCATTAAATGATAATTCCACCCATAACTTGATAATTATCACACCCAATTTAACTATAACGCTCTGATCATAGTCAGACCAACATTGCTACGACCCGTATTCGCACCGACAC	-1.14
ACATTTGTTGATACAACCATAAAAGGATAATTACACCCATCAATTGATAATTATCCCACCCAATTTAACTATAACGCTCTGATCATAGTCAGACCAACATTGCTACGACCCGTATTCGCACCGACAC	-1.89
